biological target: Mas-related G-protein coupled receptor member X1 (Homo sapiens) (UniProt Q96LB2); experiment: MrgX1 activation via calcium signaling – HEK293 cells, Fluo-4 calcium flux, primary screen (AID 588627); details: Fluo-4 calcium fluorescence, agonist mode, at 10 µM
Sequence (Q96LB2 whole entry, looked up): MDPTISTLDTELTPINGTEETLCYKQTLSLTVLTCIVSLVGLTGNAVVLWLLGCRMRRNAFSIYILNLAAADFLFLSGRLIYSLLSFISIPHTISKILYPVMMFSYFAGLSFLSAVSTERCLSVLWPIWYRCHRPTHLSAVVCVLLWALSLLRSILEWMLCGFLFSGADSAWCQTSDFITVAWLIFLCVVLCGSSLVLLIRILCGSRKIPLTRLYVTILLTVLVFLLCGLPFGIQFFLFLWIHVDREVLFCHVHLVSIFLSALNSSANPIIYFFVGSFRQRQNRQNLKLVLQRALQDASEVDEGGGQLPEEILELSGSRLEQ
Out of some 310,000 compounds screened, about 1,400 (0.45%) were called active.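 How the source made its calls: active means calcium response B-score plate-corrected fluorescence ratio at least 3 library SD, with starting fluorescence B-score inside 5 SD; inactive means the rest.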 This excerpt belongs to a sample that is enriched for actives.
Entry note: the call must match one of true (1) for active, false (0) for inactive

Below are worked cases with known answers.
# molecule, label_class
measured = [
    ("COc1cc(/C=C(\\C#N)c2nc3ccccc3[nH]2)ccc1O", "true (1)"),
    ("CCOc1ccc(NC(=O)c2ccc(NC(=O)CN3C(=O)C(=O)N(CC(C)C)C3=O)cc2)cc1", "false (0)"),
]

Which result was noted for this molecule in the test: COC1(C2=NCCN2)COc2ccccc2O1 (stereo not given)
false (0)

Which result was noted for this molecule in the test: "Cc1sc2ncn(CC(=O)NCCN(C)C)c(=O)c2c1S(=O)(=O)N1CCC(C)CC1"
false (0)

Which result was noted for this molecule in the test: "O=C(O)c1ccc(/C=C2\SC(=S)N(NC(=O)c3ccc(Br)cc3)C2=O)cc1"
false (0)

====

target: Mas-related G-protein coupled receptor member X1 (Homo sapiens); assay: MrgX1 activation via calcium signaling – HEK293 cells, Fluo-4 calcium flux, primary screen (AID 588627); details: Fluo-4 calcium fluorescence, agonist mode, at 10 µM
The campaign covered roughly 310,000 compounds. About 1,400 (0.45%) were called active.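 Rule for the calls: active = calcium response B-score plate-corrected fluorescence ratio at least 3 library SD, with starting fluorescence B-score inside 5 SD; inactive = the rest.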 The sample as a whole holds a higher share of actives than the screen did.
Entry note: the call must match one of active, inactive

Below are worked cases with known answers.
# molecule, label_class
records = [
    ("Cc1ccnc(SCC(N)=O)n1", "inactive"),
    ("CC1CCCCN1S(=O)(=O)c1ccc(C(=O)Nc2nnc(-c3cccs3)o2)cc1 (configuration not stated)", "active"),
    ("COc1ccc(CCNC(=O)C(=O)NCC2OCCN2S(=O)(=O)c2ccc(F)cc2)cc1OC (configuration not stated)", "inactive"),
    ("CSCc1nnc(NC(=O)c2ccc(S(=O)(=O)N3CCCCC3C)cc2)o1 (configuration not stated)", "inactive"),
    ("COc1ccc(-c2nc(CN3CCN(c4ncccn4)CC3)c(C)o2)cc1C", "inactive"),
    ("COc1cc(SC#N)ccc1N=Cc1c(C)[nH]n(-c2ccc(C)cc2)c1=O", "inactive"),
    ("CCc1cccc(C)c1NC(=O)COC(=O)Cc1ccsc1", "inactive"),
    ("NS(=O)(=O)c1ccc(NC(=O)COC(=O)C2(c3ccc(F)cc3)CCCC2)cc1", "inactive"),
    ("COc1cccc(-c2ccc(SCC(=O)N3CCN(c4ccccc4)CC3)nn2)c1", "inactive"),
    ("CCCOc1ccc(C2c3c(oc4cc(C)c(C)cc4c3=O)C(=O)N2CCCN2CCOCC2)cc1 (configuration not stated)", "inactive"),
]

Which result was noted for this molecule in the test: "O=[N+]([O-])c1ccc(F)cc1Oc1nc(-c2cccnc2)nc2ccccc12"
inactive

Which result was noted for this molecule in the test: COc1ccc2c(c1)OC(O)(C(F)(F)C(F)F)CC2=O (configuration not stated)
active

Which result was noted for this molecule in the test: NC(=O)C1CCN(C(=O)CC2C(=O)NCCN2Cc2cccc(Oc3ccccc3)c2)CC1 (configuration not stated)
inactive

Which result was noted for this molecule in the test: Cc1cc(C)cc(NC(=O)c2cccc(NC(=O)C3C4CC5OC(=O)C3C5C4)c2)c1 (configuration not stated)
inactive

Which result was noted for this molecule in the test: "CCS(=O)(=O)c1cc([N+](=O)[O-])c(Sc2ccccc2N)s1"
inactive

====

biological target: Mas-related G-protein coupled receptor member X1 (Homo sapiens) (UniProt Q96LB2); assay: MrgX1 activation via calcium signaling – HEK293 cells, Fluo-4 calcium flux, primary screen (AID 588627); details: Fluo-4 calcium fluorescence, agonist mode, at 10 µM
In all, about 310,000 compounds went through this assay and about 1,400 (0.45%) were called active.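 Rule for the calls: active = calcium response B-score plate-corrected fluorescence ratio at least 3 library SD, with starting fluorescence B-score inside 5 SD; inactive = the rest.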 Only a selection was taken, and actives are over-represented in it overall.
Entry note: the call must match one of active, inactive

Below are worked cases with known answers.
# compound, label_class
records = [
    ("COc1cc(/C=C2/C(=O)NN(c3cccc(Cl)c3)C2=O)cc(Br)c1O", "active"),
    ("N#Cc1cc([N+](=O)[O-])ccc1NCC1CCCO1 (stereo not given)", "inactive"),
    ("COc1ccccc1CCNS(=O)(=O)c1cn(C)nc1C", "inactive"),
    ("CC(C[N+](C)(C)C)OC(N)=O (stereo not given)", "active"),
    ("CC(C)=CCc1c(O)c(CC=C(C)C)c2occ(-c3ccc(O)cc3)c(=O)c2c1O", "active"),
]

Which result was noted for this compound in the test: "N=C(N)SCc1cccc2ccccc12"
active

Which result was noted for this compound in the test: CCC(C)(C(=O)NC1CCCC1)N(C(=O)CNC(C)=O)c1ccc(C)cc1 (stereo not given)
inactive

Which result was noted for this compound in the test: "Cc1nnsc1C(=O)N/N=C/c1ccccc1Cl"
inactive

Which result was noted for this compound in the test: "CS(=O)(=O)c1sc(C(=O)NC(=S)Nc2ccc(OC(F)(F)F)cc2)c2c1C=CCC2"
inactive

Which result was noted for this compound in the test: "CC(C)CN(Cc1c(O)ccc2c(=O)c(-c3ccccc3)coc12)CC(C)C"
inactive

====

target: Mas-related G-protein coupled receptor member X1 (Homo sapiens); experiment: MrgX1 activation via calcium signaling – HEK293 cells, Fluo-4 calcium flux, primary screen (AID 588627); details: Fluo-4 calcium fluorescence, agonist mode, at 10 µM
Among all 310,000 compounds or so, about 1,400 (0.45%) were called active.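 How the source made its calls: active means calcium response B-score plate-corrected fluorescence ratio at least 3 library SD, with starting fluorescence B-score inside 5 SD; inactive means the rest.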 This is one part of a sample in which actives are shown more often than they occur.
Entry note: the call must match one of TRUE for active, FALSE for inactive

Below are worked cases with known answers.
# compound, label_class
measured = [
    ("COc1cc(OC)cc(C(=O)N[C@H](C(=O)OCC(=O)NC(C)c2ccccc2)C(C)C)c1 (stereo partly specified)", "TRUE"),
    ("Cc1cc(C)cc(OCC(=O)NC(C)c2ccccc2)c1 (stereo unspecified)", "FALSE"),
]

Which result was noted for this compound in the test: "CCOC(=O)C1CCN(C(=O)C2(NC(=O)Nc3cccc(F)c3)CCCCC2)CC1"
FALSE

Which result was noted for this compound in the test: "CN(C)/C(=N\OC(=O)c1ccccc1)c1nonc1N"
FALSE

Which result was noted for this compound in the test: COCCNC(=O)C(c1ccc(O)cc1)N(C(=O)CCC(=O)Nc1nccs1)c1ccc(C)cc1 (stereo unspecified)
FALSE

Which result was noted for this compound in the test: "COC(=O)c1ccc(NC(=O)CN(c2ccc(C)cc2)S(=O)(=O)c2c(C)n[nH]c2C)cc1"
FALSE

Which result was noted for this compound in the test: "CCNc1nc(-c2cc3ccccc3o2)cs1"
FALSE

Which result was noted for this compound in the test: CC(C)COC(=O)c1ccc(NC(=O)C2C3C=CC(C3)C2C(=O)O)cc1 (stereo unspecified)
FALSE

Which result was noted for this compound in the test: "Cc1nc(C)c(-c2csc(NCCc3ccccc3)n2)s1"
TRUE

Which result was noted for this compound in the test: CCCC1OC23CCCCC2C(C#N)(C#N)C1(C#N)C(=N)O3 (stereo unspecified)
FALSE

Which result was noted for this compound in the test: "CCCCN1C(=O)/C(=C2/C=CC=CN2C)SC1=S"
FALSE

====

biological target: Mas-related G-protein coupled receptor member X1 (Homo sapiens) (UniProt Q96LB2); experiment: MrgX1 activation via calcium signaling – HEK293 cells, Fluo-4 calcium flux, primary screen (AID 588627); conditions: Fluo-4 calcium fluorescence, agonist mode, at 10 µM
In all, about 310,000 compounds went through this assay and about 1,400 (0.45%) were called active.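 Rule for the calls: active = calcium response B-score plate-corrected fluorescence ratio at least 3 library SD, with starting fluorescence B-score inside 5 SD; inactive = the rest.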 Many of the other results were omitted from the sample, so actives are more common in it than they were.
Entry note: the call must match one of active, inactive

Below are worked cases with known answers.
# compound, label_class
measured = [
    ("CC(C)C(=O)NCC(c1cccs1)S(=O)(=O)c1ccc(F)cc1 (stereo unspecified)", "inactive"),
    ("O=C1Nc2cc(C(=O)N3CCN(c4ccc(F)cc4)CC3)ccc2NC1CSCc1cccc(F)c1 (stereo unspecified)", "active"),
    ("COc1cccc(COC(=O)C2CCN(S(=O)(=O)c3ccc(Cl)cc3)CC2)c1OC", "inactive"),
    ("CC(C)OCCCNC(=O)c1ccc(C2SCC(=O)N2Cc2ccco2)cc1 (stereo unspecified)", "inactive"),
    ("O=C(/C=C/c1cccc([N+](=O)[O-])c1)N1CCN(Cc2ccccc2)CC1", "inactive"),
    ("COC(=O)c1ccc(COC(=O)C2CCN(S(=O)(=O)c3c(Cl)cccc3Cl)CC2)o1", "active"),
    ("C/C=C/c1ccc(OCC(=O)OCC(=O)Nc2c(C)nn(-c3ccccc3)c2C)c(OC)c1", "inactive"),
    ("C#CCOCCOCCOCCNc1nc(N2CCN(C(=O)CCCCCCCCCCNC(=O)[C@H](CCCCN)n3cc(C)nn3)CC2)nc(N2CCN(C(=O)CCCCCCCCCCNC(=O)[C@H](CO)n3cc(CCCSC)nn3)CC2)n1", "active"),
]

Which result was noted for this compound in the test: "O=[N+]([O-])/C=C/c1ccc2c(ccn2Cc2ccccc2)c1"
active

Which result was noted for this compound in the test: "CCOc1ccc(S(=O)(=O)N2CCC(C(=O)OCc3ccc(OC)cc3)CC2)cc1"
inactive

Which result was noted for this compound in the test: "C#CCOCCOCCOCCNc1nc(N2CCN(C(=O)CCCCCCCCCCNC(=O)[C@H]([C@@H](C)CC)n3cc(CCCCN=C(N)N)nn3)CC2)nc(N2CCN(C(=O)CCCCCCCCCCNC(=O)[C@H](CO)n3cc(CCCSC)nn3)CC2)n1"
inactive
